Measured IC50, listed per entry for reference.
- system_under_test: FGFR3-BAIAP2L1 Ba/F3 cells (Homo sapiens, UniProt P22607)
- Sequence (P22607 23-806 limits assumed, change not shown): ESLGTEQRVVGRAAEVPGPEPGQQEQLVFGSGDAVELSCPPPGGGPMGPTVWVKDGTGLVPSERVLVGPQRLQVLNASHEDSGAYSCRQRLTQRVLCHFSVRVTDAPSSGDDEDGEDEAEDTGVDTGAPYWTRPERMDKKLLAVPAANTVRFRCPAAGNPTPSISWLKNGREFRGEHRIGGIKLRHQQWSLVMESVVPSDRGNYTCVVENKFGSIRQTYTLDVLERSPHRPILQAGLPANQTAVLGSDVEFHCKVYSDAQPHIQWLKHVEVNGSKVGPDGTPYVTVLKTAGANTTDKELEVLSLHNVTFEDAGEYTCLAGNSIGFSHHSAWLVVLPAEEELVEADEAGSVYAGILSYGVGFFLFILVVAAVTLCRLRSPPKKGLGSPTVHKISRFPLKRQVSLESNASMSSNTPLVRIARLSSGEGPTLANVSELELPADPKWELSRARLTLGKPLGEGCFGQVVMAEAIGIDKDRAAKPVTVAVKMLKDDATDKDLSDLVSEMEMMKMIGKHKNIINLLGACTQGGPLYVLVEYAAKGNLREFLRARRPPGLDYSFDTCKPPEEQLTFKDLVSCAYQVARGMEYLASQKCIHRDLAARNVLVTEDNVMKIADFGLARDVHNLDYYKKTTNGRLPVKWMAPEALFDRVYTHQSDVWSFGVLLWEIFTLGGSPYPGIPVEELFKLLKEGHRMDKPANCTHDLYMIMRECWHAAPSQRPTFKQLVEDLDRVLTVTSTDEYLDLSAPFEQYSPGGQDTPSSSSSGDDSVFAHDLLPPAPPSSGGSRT
- assay_protocol: Ba/F3 cell viability assay (CellTiter-Glo 2.0), FGFR3-BAIAP2L1 Ba/F3
- Format: cell-based
- stated_conditions: read-out: Ba/F3 Cells FGFR3 (IC50 nM); FGFR3-BAIAP2L1 Ba/F3 cells, 48 hours, Cell Titer Glo 2.0

compound	IC50
C[C@@H](Oc1ccc2[nH]nc(-c3ccc(N4CCNCC4=O)nc3)c2c1)c1c(Cl)cncc1Cl [Example 37]	1 to 20 nM
CC(Oc1ccc2[nH]nc(-c3ccc(N4CC5(C4)CN(S(C)(=O)=O)C5)nc3)c2c1)c1c(Cl)ccnc1Cl (stereo not shown) [Example 109]	1 to 20 nM
C[C@@H](Oc1ccc2[nH]nc(-c3cnc(N4CCCN(C(N)=O)CC4)nc3)c2c1)c1c(Cl)cncc1Cl [Example 62]	20 to 100 nM
C[C@@H](Oc1ccc2[nH]nc(-c3cnn(C4CCS(=O)(=O)CC4)c3)c2c1)c1c(Cl)cncc1Cl [Example 114]	20 to 100 nM
C[C@@H](Oc1ccc2[nH]nc(-c3cnc(N4CCNCC4)c(F)c3)c2c1)c1c(Cl)cncc1Cl [Example 10]	1 to 20 nM
C[C@@H](Oc1ccc2[nH]nc(-c3cnn(C4CCN(C5CCC5)CC4)c3)c2c1)c1c(Cl)cncc1Cl [Example 90]	1 to 20 nM
CCOC(=O)N1CCC2(CC1)CN(c1ccc(-c3n[nH]c4ccc(O[C@H](C)c5c(Cl)cncc5Cl)cc34)cn1)C2 [Example 130]	20 to 100 nM

====

- system_under_test: FGFR3-BAIAP2L1 Ba/F3 cells (Homo sapiens, UniProt P22607)
- assay_protocol: Ba/F3 cell viability assay (CellTiter-Glo 2.0), FGFR3-BAIAP2L1 Ba/F3
- Type: cell-based
- stated_conditions: read-out: Ba/F3 Cells FGFR3 (IC50 nM); FGFR3-BAIAP2L1 Ba/F3 cells, 48 hours, Cell Titer Glo 2.0
Measured IC50, listed per entry for reference.
endpoint: IC50

compound	system_under_test	reported_measurement
CCOC(=O)N1CC2(C1)CN(c1ccc(-c3n[nH]c4ccc(O[C@H](C)c5c(C)cnnc5C)cc34)cn1)C2 [Example 142]	FGFR3-BAIAP2L1 Ba/F3 cells (Homo sapiens, UniProt P22607)	1 to 20 nM
C[C@@H](Oc1ccc2[nH]nc(-c3cnc(N4CC5(CCN(S(C)(=O)=O)CC5)C4)nc3)c2c1)c1c(Cl)cncc1Cl [Example 137]	FGFR3-BAIAP2L1 Ba/F3 cells (Homo sapiens, UniProt P22607)	1 to 20 nM
Cc1ncc(Cl)c([C@@H](C)Oc2ccc3[nH]nc(-c4cnn(C5CCNCC5)c4)c3c2)c1Cl [Example 92]	FGFR3-BAIAP2L1 Ba/F3 cells (Homo sapiens, UniProt P22607)	20 to 100 nM
C[C@@H](Oc1ccc2[nH]nc(-c3ccc(N4CC5(CCN(C)CC5)OC4=O)nc3)c2c1)c1c(Cl)cncc1Cl [Example 75]	FGFR3-BAIAP2L1 Ba/F3 cells (Homo sapiens, UniProt P22607)	1 to 20 nM
C[C@@H](Oc1ccc2[nH]nc(-c3cnn(C4CCN(C(=O)N(C)C)CC4)c3)c2c1)c1c(Cl)cncc1Cl [Example 67]	FGFR3-BAIAP2L1 Ba/F3 cells (Homo sapiens, UniProt P22607)	1 to 20 nM
Cc1cnnc(C)c1[C@@H](C)Oc1ccc2[nH]nc(-c3ccc(N4CC5(CCS(=O)(=O)C5)C4)nc3)c2c1 [Example 144]	FGFR3-BAIAP2L1 Ba/F3 cells (Homo sapiens, UniProt P22607)	20 to 100 nM
C[C@@H](Oc1ccc2[nH]nc(-c3cnc(N4CCC5(CCCN5C)CC4)nc3)c2c1)c1c(Cl)cncc1Cl [Example 52]	FGFR3-BAIAP2L1 Ba/F3 cells (Homo sapiens, UniProt P22607)	20 to 100 nM

====

- system_under_test: FGFR3-BAIAP2L1 Ba/F3 cells (Homo sapiens, UniProt P22607)
- assay_protocol: Ba/F3 cell viability assay (CellTiter-Glo 2.0), FGFR3-BAIAP2L1 Ba/F3
- Assay type: cell-based
- stated_conditions: FGFR3 > FGFR1 selectivity ratio in Ba/F3 FGFR fusion cell based assays

molecule	Ba/F3 FGFR1/FGFR3 Selectivity
C[C@@H](Oc1ccc2[nH]nc(-c3cnc(N4CCC5(CCN(C)C5=O)CC4)nc3)c2c1)c1c(Cl)cncc1Cl [Example 51]	7
CCN1CC[C@@H](n2cc(-c3n[nH]c4ccc(O[C@H](C)c5c(Cl)cncc5Cl)cc34)cn2)C1 [Example 91]	8
C[C@@H](Oc1ccc2[nH]nc(-c3cnc(N4CCNCC4)c(F)c3)c2c1)c1c(Cl)cncc1Cl [Example 10]	9
CC(Oc1ccc2[nH]nc(-c3cnn(C4CCN(C5COC5)CC4)c3)c2c1)c1c(Cl)ccnc1Cl (centres unmarked) [Example 108]	14
CCOC(=O)N1CCCC2(C1)CN(c1ncc(-c3n[nH]c4ccc(O[C@H](C)c5c(Cl)cncc5Cl)cc34)cn1)C2 [Example 131]	5
Cc1ncc(Cl)c([C@@H](C)Oc2ccc3[nH]nc(-c4cnn(C5CCN(C)CC5)c4)c3c2)c1Cl [Example 80]	17
C[C@@H](Oc1ccc2[nH]nc(-c3cnc(N4CCC5(CCNC5=O)CC4)nc3)c2c1)c1c(Cl)cncc1Cl [Example 55]	16
C[C@@H](Oc1ccc2[nH]nc(-c3ccc(N4CCN(S(C)(=O)=O)CC4)nc3)c2c1)c1c(Cl)cncc1Cl [Example 6]	13
COC(=O)N1CCC2(CC1)CN(c1ncc(-c3n[nH]c4ccc(O[C@H](C)c5c(Cl)cncc5Cl)cc34)cn1)C2 [Example 136]	6
Cc1ncc(Cl)c([C@@H](C)Oc2ccc3[nH]nc(-c4ccc(N5CC6(C5)CN(S(C)(=O)=O)C6)nc4)c3c2)c1Cl [Example 107]	16
C[C@@H](Oc1ccc2[nH]nc(-c3ccc(N4CCS(=O)(=O)CC4)nc3)c2c1)c1c(Cl)cncc1Cl [Example 1]	33
Cc1cnnc(C)c1[C@@H](C)Oc1ccc2[nH]nc(-c3ccc(N4CC5(CCS(=O)(=O)C5)C4)nc3)c2c1 [Example 144]	33
C[C@@H](Oc1ccc2[nH]nc(-c3cnc(N4CCC5(CCC(=O)N5C)CC4)nc3)c2c1)c1c(Cl)cncc1Cl [Example 54]	13
C[C@@H](Oc1ccc2[nH]nc(-c3ccc(N4CC5(CCNCC5)OC4=O)nc3)c2c1)c1c(Cl)cncc1Cl [Example 74]	6

====

Measured IC50, listed per entry for reference.
- system_under_test: FGFR1-BCR Ba/F3 cells (Homo sapiens)
- Sequence (P11362 22-822 limits assumed, change not shown): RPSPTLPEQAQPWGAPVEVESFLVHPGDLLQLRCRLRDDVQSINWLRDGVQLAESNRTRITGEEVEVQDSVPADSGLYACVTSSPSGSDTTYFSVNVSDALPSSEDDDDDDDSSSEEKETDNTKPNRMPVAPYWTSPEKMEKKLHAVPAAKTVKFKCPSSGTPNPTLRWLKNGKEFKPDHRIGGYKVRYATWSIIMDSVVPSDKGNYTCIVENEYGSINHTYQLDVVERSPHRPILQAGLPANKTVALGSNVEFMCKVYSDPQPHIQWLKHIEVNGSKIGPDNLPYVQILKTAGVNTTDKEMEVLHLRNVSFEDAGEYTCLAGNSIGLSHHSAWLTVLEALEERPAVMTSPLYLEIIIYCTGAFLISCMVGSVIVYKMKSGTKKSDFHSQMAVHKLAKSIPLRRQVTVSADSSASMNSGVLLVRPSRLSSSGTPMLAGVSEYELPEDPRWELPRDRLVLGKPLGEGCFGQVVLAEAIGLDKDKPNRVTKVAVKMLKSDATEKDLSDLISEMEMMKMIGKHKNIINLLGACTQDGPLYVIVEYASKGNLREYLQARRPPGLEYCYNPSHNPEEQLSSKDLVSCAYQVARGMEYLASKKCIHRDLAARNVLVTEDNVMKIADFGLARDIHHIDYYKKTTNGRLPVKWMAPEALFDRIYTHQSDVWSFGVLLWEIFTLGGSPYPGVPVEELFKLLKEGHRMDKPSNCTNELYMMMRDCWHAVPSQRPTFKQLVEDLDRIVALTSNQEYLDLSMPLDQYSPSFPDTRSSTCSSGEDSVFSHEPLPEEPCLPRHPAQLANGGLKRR
- assay_protocol: Ba/F3 cell viability assay (CellTiter-Glo 2.0), FGFR1-BCR Ba/F3
- Assay type: cell-based
- stated_conditions: read-out: Ba/F3 Cells FGFR1 (IC50 nM), 48 hours, Cell Titer Glo 2.0
endpoint: IC50

smiles_record	endpoint	reported_measurement
COC(=O)N1CCC2(CC1)CN(c1ncc(-c3n[nH]c4ccc(O[C@H](C)c5c(Cl)cncc5Cl)cc34)cn1)C2	IC50	> 300 nM
CCN1CC[C@@H](n2cc(-c3n[nH]c4ccc(O[C@H](C)c5c(Cl)cncc5Cl)cc34)cn2)C1	IC50	100 to 300 nM
C[C@@H](Oc1ccc2[nH]nc(-c3cnn(C4CCN(C(N)=O)CC4)c3)c2c1)c1c(Cl)cncc1Cl	IC50	100 to 300 nM
C[C@@H](Oc1ccc2[nH]nc(-c3cnn(C4CCNCC4)c3)c2c1)c1cc(F)cc(F)c1	IC50	> 300 nM
C[C@@H](Oc1ccc2[nH]nc(-c3ccc(N4CCN(C(=O)N5CCN(C)CC5)CC4)nc3)c2c1)c1c(Cl)cncc1Cl	IC50	100 to 300 nM
C[C@@H](Oc1ccc2[nH]nc(-c3ccc(N4CC5(CCN(C)CC5)OC4=O)nc3)c2c1)c1c(Cl)cncc1Cl	IC50	100 to 300 nM
CCOC(=O)N1CCCC2(C1)CN(c1ncc(-c3n[nH]c4ccc(O[C@H](C)c5c(Cl)cncc5Cl)cc34)cn1)C2	IC50	> 300 nM

====

- system_under_test: FGFR2 (Homo sapiens (Human))
- Sequence (P21802 22-821): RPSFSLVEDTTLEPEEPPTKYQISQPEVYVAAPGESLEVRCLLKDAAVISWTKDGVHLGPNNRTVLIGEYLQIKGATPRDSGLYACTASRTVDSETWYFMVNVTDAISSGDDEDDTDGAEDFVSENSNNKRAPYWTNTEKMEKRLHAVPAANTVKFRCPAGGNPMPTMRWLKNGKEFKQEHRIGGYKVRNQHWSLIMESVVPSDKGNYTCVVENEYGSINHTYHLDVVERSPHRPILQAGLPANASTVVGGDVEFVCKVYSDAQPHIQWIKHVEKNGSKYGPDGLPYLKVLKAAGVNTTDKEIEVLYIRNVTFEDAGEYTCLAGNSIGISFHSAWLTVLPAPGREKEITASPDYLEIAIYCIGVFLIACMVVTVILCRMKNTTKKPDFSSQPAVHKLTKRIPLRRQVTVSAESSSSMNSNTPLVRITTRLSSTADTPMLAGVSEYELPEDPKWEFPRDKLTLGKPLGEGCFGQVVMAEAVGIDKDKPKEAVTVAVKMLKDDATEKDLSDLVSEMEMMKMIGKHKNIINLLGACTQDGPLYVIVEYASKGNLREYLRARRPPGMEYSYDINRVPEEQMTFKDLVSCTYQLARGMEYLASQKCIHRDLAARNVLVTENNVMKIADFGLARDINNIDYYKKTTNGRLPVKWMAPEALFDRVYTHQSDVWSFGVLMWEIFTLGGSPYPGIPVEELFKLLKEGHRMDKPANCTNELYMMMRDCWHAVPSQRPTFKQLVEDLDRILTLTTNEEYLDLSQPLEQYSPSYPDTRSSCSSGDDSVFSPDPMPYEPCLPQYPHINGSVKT
- assay_protocol: Kinase assay, binding constants (Kd), kinase-tagged T7 phage, qPCR
endpoint: Kd

smiles_record	reported_measurement
C[C@@H]1CCN1c1ncc(-c2n[nH]c3cc(Cl)c(O[C@H](C)c4c(Cl)cncc4Cl)cc23)cc1C#N	> 300 nM
CCOC(=O)N1CC2(C1)CN(c1ccc(-c3n[nH]c4ccc(O[C@H](C)c5c(C)cnnc5C)cc34)cn1)C2	1 to 20 nM
C[C@@H](Oc1ccc2[nH]nc(-c3ccc(N4CCN(S(=O)(=O)N5CCN(C)CC5)CC4)nc3)c2c1)c1c(Cl)cncc1Cl	20 to 100 nM
Cc1cnnc(C)c1[C@@H](C)Oc1ccc2[nH]nc(-c3cnc(N4CC[C@H](O)C4)c(C#N)c3)c2c1	20 to 100 nM
